test system: HEK-293T; assay: Multiplex assay against HEK293T; assay type: toxicity, cell-based; conditions: human, 48 h, 1 µM, compound concentration 1 uM, replicate 2
readout-label: Population Fragmented Nuclei (%)
Give just the numeric value; % need not be written.

Example cases with answers are listed next.
1) S=C(NCCCc1c[nH]cn1)NCCCN(Cc1ccc(Cl)c(Cl)c1)c1ccc(Br)cn1	5
2) O=C(Nc1ccc(-c2ccnc(Nc3ccc(N4CCOCC4)cc3)n2)cc1)[C@@H]1CCCN1	4
3) CN1C2CCC1CC(OC(c1ccc(F)cc1)c1ccc(F)cc1)C2.Cl (stereo unspecified)	4
4) CCc1cccc(CC)c1NC(=O)c1nn(C)c2c1CCc1cnc(Nc3ccc(C(=O)NC4CCN(C)CC4)cc3OC(F)(F)F)nc1-2	7
5) CCOC(=O)c1c(C)[nH]c2ccc3c(c12)CN1CCc2cc(OC)ccc2C1O3 (stereo unspecified)	6
6) CN(C)C(=O)C(CCN1CCC(O)(c2ccc(Cl)cc2)CC1)(c1ccccc1)c1ccccc1.Cl [LOPERAMIDE HYDROCHLORIDE]	6
7) CCOc1cc(C(=O)N2CCC(N3CCN(C)CC3)CC2)ccc1Nc1ncc2c(n1)N(C1CCCC1)c1ccccc1C(=O)N2C	8
8) CN1CCC(=C2c3ccccc3CC(=O)c3sccc32)CC1.O=C(O)/C=C/C(=O)O [KETOTIFEN FUMARATE]	4
9) O=C1NC(=O)C(c2cnc3ccccn23)=C1c1cn2c3c(cc(F)cc13)CN(C(=O)N1CCCCC1)CC2 [LY-2090314]	3
10) Cc1cc(C)c(S(=O)(=O)N(Cc2ccc(-c3cccc(S(C)(=O)=O)c3)cc2)Cc2ccc(C(F)(F)F)o2)c(C)c1	6

Q: Given CCN1CCN(Cc2ccc(Nc3ncc(F)c(-c4cc(F)c5nc(C)n(C(C)C)c5c4)n3)nc2)CC1.CS(=O)(=O)O , state its recorded Population Fragmented Nuclei (%).
Result: 9

Q: Given CCOc1cc2ncc(C#N)c(Nc3ccc(OCc4ccccn4)c(Cl)c3)c2cc1NC(=O)/C=C/CN(C)C [NERATINIB] , state its recorded Population Fragmented Nuclei (%).
Result: 21

Q: Given CCCS(=O)(=O)c1nc(NC2CC2)cc(-c2ccc3c(ccn3C3CC(C)(C)NC(C)(C)C3)c2)n1 , state its recorded Population Fragmented Nuclei (%).
Result: 9

Q: Given CNc1cc(Oc2cc(C(=O)Nc3cc(N4CCN(C)CC4)cc(C(F)(F)F)c3)ccc2C)ncn1 , state its recorded Population Fragmented Nuclei (%).
Result: 14

Q: Given O=C(Nc1ccc(-n2nc(-c3cccnc3)cc2C(F)(F)F)cn1)c1ccc(-c2ccccc2)c(F)c1 [BI 2049] , state its recorded Population Fragmented Nuclei (%).
Result: 7

Q: Given CCCn1c(=O)c2[nH]c(-c3cnn(Cc4cccc(C(F)(F)F)c4)c3)nc2n(CC)c1=O [GS 6201] , state its recorded Population Fragmented Nuclei (%).
Result: 5
